We begin with a simple list: items and their reported inhibition.
Target: UniProtKB P78549
Sequence (P78549 whole entry): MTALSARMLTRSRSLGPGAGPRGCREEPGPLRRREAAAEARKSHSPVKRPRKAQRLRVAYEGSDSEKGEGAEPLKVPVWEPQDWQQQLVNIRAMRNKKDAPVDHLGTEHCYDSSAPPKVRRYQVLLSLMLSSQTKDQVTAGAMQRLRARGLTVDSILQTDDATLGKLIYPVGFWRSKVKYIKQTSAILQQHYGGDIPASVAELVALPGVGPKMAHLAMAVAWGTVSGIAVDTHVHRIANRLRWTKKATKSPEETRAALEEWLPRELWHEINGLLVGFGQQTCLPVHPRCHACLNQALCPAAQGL
Details: Compound Concentration 10.0 uM, Hit No;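 also: enzyme assay tracking NTHL1 cutting and release of a quenched double-stranded DNA oligo substrate, read as fluorescence at 594 nm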
Description: Inhibition of NTHL1 by quantifying inhibition of NTHL1-mediated cleavage and dissociation of quenched duplex DNA oligonucleotides, measured as fluorescence at 594 nm.
Give just the numeric value; % need not be written.

Here are 5 molecules together with their reported answers.
Inquiry: Quick check: inhibition of COc1ccc([C@@H]2Sc3ccccc3N(CCN(C)C)C(=O)[C@@H]2OC(C)=O)cc1 ?
Reply text: 30.3

Inquiry: Quick check: inhibition of COc1ccc(CC[C@@H](OC(=O)[C@@H]2CCCCN2C(=O)[C@H](c2cc(OC)c(OC)c(OC)c2)C2CCCCC2)c2cccc(OCCN3CCOCC3)c2)cc1OC ?
Reply text: -7.86

Inquiry: Quick check: inhibition of N/C(=N\C(=O)c1nc(Cl)c(N)nc1N)NCc1ccccc1 ?
Reply text: 15.4

Inquiry: Quick check: inhibition of Cc1ccc(F)cc1C(=O)Nc1ccc(C(=O)N2Cc3cccn3Cc3ccccc32)c(Cl)c1 ?
Reply text: 18.1

Inquiry: Quick check: inhibition of CCCCN(CC)c1nc(C)nc2c1c(C)cn2-c1c(C)cc(C)cc1C ?
Reply text: 19.5

Others:
Inquiry: Quick check: inhibition of NCCc1c[nH]c2ccc(O)cc12 ?
Reply text: 1.92

Inquiry: Quick check: inhibition of COc1ccc2c(c1)C(C(=O)N(Cc1ccc(N(C)C)cc1)c1ccc(C(C)C)cc1)CCC2 (configuration not stated) ?
Reply text: 0.568
